B1: C8orf76 (parent)
chain: YCAKLCEPQWFYEETESSDDVEVL

Variants of: B1
Assay Details: protein stability index of a GFP-peptide fusion (GPS, HEK-293T) (PSI 1-6); higher = more stable;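 note: lentivirally expressed fusions sorted by FACS into six bins by GFP to DsRed ratio, PSI derived from sequencing read proportions per bin multiplied by bin number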
Condition Label: c terminus: a fixed tail appended
Parameter: protein stability index
Numbers only.

Worked set:
>>> df
   sequence_change                parameter  observed
0             D20T  protein stability index      2.18
1              Y1S  protein stability index      4.19
2              C2N  protein stability index      2.91
3              A3P  protein stability index      1.71
4             D19M  protein stability index      1.58

Batch: protein stability index for all items listed.
1. C2A
2. V21M

1. 1.94
2. 2.19
